- Test system: Staphylococcus aureus
- ASSAY_REMARKS: Antibacterial activity against methicillin resistant Staphylococcus aureus M23 incubated for 16 to 18 hrs by broth dilution method
- Format: functional
- ASSAY_CONTEXT: time 16-18 hrs
Quick reference for MIC among some molecules
The reply should contain only the number, in µg/mL.

Solved cases (5 shown):
[
  {
    "MOL": "C=CCc1cc(-c2ccc(OCCC[N+](C)(C)CC(=O)NCCCC)c(CC=C)c2)c2oc(-c3ccccc3)nc2c1.[Br-]",
    "TARGET_ENTITY": "Staphylococcus aureus",
    "MIC, µg/mL": 2
  },
  {
    "MOL": "C=CCc1cc(-c2ccc(OCCC[N+](C)(C)CC(=O)NCCCC)c(CC=C)c2)c2oc(-c3ccccc3F)nc2c1.[Br-]",
    "TARGET_ENTITY": "Staphylococcus aureus",
    "MIC, µg/mL": 4
  },
  {
    "MOL": "C=CCc1cc(-c2ccc(OCCC[N+](C)(C)CC(=O)NCCCC)c(CC=C)c2)c2oc(-c3ccc(Br)cc3)nc2c1.[Br-]",
    "TARGET_ENTITY": "Staphylococcus aureus",
    "MIC, µg/mL": 8
  },
  {
    "MOL": "C=CCc1cc(-c2ccc(OCCC[N+](C)(C)CC(=O)NCCCC)c(CC=C)c2)c2oc(-c3ccc(F)c(Br)c3)nc2c1.[Br-]",
    "TARGET_ENTITY": "Staphylococcus aureus",
    "MIC, µg/mL": 16
  },
  {
    "MOL": "C=CCc1cc(-c2ccc(OCCC[N+](C)(C)CC(=O)NCCCC)c(CC=C)c2)c2oc(-c3ccc(OC)cc3)nc2c1.[Br-]",
    "TARGET_ENTITY": "Staphylococcus aureus",
    "MIC, µg/mL": 2
  }
]

Notebook: C=CCc1cc(-c2ccc(OCCC[N+](C)(C)CC(=O)NCCCC)c(CC=C)c2)c2oc(-c3cccc(OC)c3)nc2c1.[Br-] , MIC read as 8

Notebook: C=CCc1cc(-c2ccc(OCCC[N+](C)(C)CC(=O)NCCCC)c(CC=C)c2)c2oc(-c3c(Cl)cccc3Cl)nc2c1.[Br-] , MIC read as 4

* * *

- ASSAY_REMARKS: Hemolytic activity in sheep RBC incubated for 1 hr
- Format: toxicity, cell-based, Ovis aries, Erythrocyte
- ASSAY_CONTEXT: sheep red blood cells (erythrocytes)
MEASURED_PARAMETER: HC50 at 1 h (µg/mL)
The reply should contain only the number, in µg/mL.

Solved cases (6 shown):
[
  {
    "MOL": "C=CCc1cc(-c2ccc(OCCC[N+](C)(C)CC(=O)NCCCC)c(CC=C)c2)c2oc(-c3cc(Br)cc(Br)c3)nc2c1.[Br-]",
    "MEASURED_PARAMETER": "HC50 at 1 h",
    "UNIT_INFO": "µg/mL",
    "QUANTITATIVE_READOUT": 205
  },
  {
    "MOL": "C=CCc1cc(-c2ccc(OCCC[N+](C)(C)CC(=O)NCCCC)c(CC=C)c2)c2oc(-c3cccc(Cl)c3Cl)nc2c1.[Br-]",
    "MEASURED_PARAMETER": "HC50 at 1 h",
    "UNIT_INFO": "µg/mL",
    "QUANTITATIVE_READOUT": 39.5
  },
  {
    "MOL": "C=CCc1cc(-c2ccc(OCCC[N+](C)(C)CC(=O)NCCCC)c(CC=C)c2)c2oc(-c3ccc(Cl)cc3Cl)nc2c1.[Br-]",
    "MEASURED_PARAMETER": "HC50 at 1 h",
    "UNIT_INFO": "µg/mL",
    "QUANTITATIVE_READOUT": 85.9
  },
  {
    "MOL": "C=CCc1cc(-c2ccc(OCCC[N+](C)(C)CC(=O)NCCCC)c(CC=C)c2)c2oc(-c3ccc(F)cc3Cl)nc2c1.[Br-]",
    "MEASURED_PARAMETER": "HC50 at 1 h",
    "UNIT_INFO": "µg/mL",
    "QUANTITATIVE_READOUT": 219
  },
  {
    "MOL": "C=CCc1cc(-c2ccc(OCCC[N+](C)(C)CC(=O)NCCCC)c(CC=C)c2)c2oc(-c3cc(F)c(F)c(F)c3)nc2c1.[Br-]",
    "MEASURED_PARAMETER": "HC50 at 1 h",
    "UNIT_INFO": "µg/mL",
    "QUANTITATIVE_READOUT": 64.4
  },
  {
    "MOL": "C=CCc1cc(-c2ccc(OCCC[N+](C)(C)CC(=O)NCCCC)c(CC=C)c2)c2oc(-c3ccc(C(F)(F)F)cc3)nc2c1.[Br-]",
    "MEASURED_PARAMETER": "HC50 at 1 h",
    "UNIT_INFO": "µg/mL",
    "QUANTITATIVE_READOUT": 59.5
  }
]

# evaluate next
Notebook: C=CCc1cc(-c2ccc(OCCC[N+](C)(C)CC(=O)NCCCC)c(CC=C)c2)c2oc(-c3c(Cl)cccc3Cl)nc2c1.[Br-] , HC50 at 1 h read as 218
